B1: TPR 5TU (parent)
chain: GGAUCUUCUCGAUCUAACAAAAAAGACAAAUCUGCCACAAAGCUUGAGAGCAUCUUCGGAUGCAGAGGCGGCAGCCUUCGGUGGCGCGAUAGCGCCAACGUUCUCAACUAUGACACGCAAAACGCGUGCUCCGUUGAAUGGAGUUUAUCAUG

variants of: B1; test: polymerase ribozyme fitness, log enrichment relative to wild type (log ratio); higher = more active; in vitro selection for triplet polymerase activity
Fewer inactive variants are shown than the library holds.
# polymerase ribozyme fitness (log ratio) per record follows

Observe how each entry below is paired with its result.
{"columns": ["mutantId", "recordedMeasurement"],
 "data": [
  ["C18U G42A A73U C95U A98U C103G", "≤ -4.2"],
  ["G42A G48A U102C C103A", "≤ -4.2"]
]}

Prompt: Recorded polymerase ribozyme fitness (log ratio) for C14A G62U G94A , please?
Completion: -2.9

Prompt: Recorded polymerase ribozyme fitness (log ratio) for G11U U33G A66C G84A G128U A137C U145A , please?
Completion: ≤ -4.2

Prompt: Recorded polymerase ribozyme fitness (log ratio) for A39C C75U G83A , please?
Completion: ≤ -4.2

Prompt: Recorded polymerase ribozyme fitness (log ratio) for U15G A37U U55A U56C C87G C95U A106G G136A U145G , please?
Completion: ≤ -4.2

Prompt: Recorded polymerase ribozyme fitness (log ratio) for C10A C51U C93U U111G , please?
Completion: ≤ -4.2

Prompt: Recorded polymerase ribozyme fitness (log ratio) for A49U U61A C87A G140C , please?
Completion: ≤ -4.2

Prompt: Recorded polymerase ribozyme fitness (log ratio) for U134A A142C , please?
Completion: -2.66

Prompt: Recorded polymerase ribozyme fitness (log ratio) for A39C C54G C93A , please?
Completion: ≤ -4.2

Prompt: Recorded polymerase ribozyme fitness (log ratio) for G58A U82A A89U A119G A120U G126U , please?
Completion: -0.897

Prompt: Recorded polymerase ribozyme fitness (log ratio) for U7G G50C U56G G94C , please?
Completion: ≤ -4.2

Prompt: Recorded polymerase ribozyme fitness (log ratio) for C96U G143A , please?
Completion: -0.236

Prompt: Recorded polymerase ribozyme fitness (log ratio) for A29U A137G , please?
Completion: ≤ -4.2

Prompt: Recorded polymerase ribozyme fitness (log ratio) for C43U C96G , please?
Completion: ≤ -4.2

Prompt: Recorded polymerase ribozyme fitness (log ratio) for G42A U56A A60U C76A C96A U102G U127A G141U A150G , please?
Completion: ≤ -4.2

Prompt: Recorded polymerase ribozyme fitness (log ratio) for U15G A22U U56A A66C G117A A138G U146C , please?
Completion: ≤ -4.2

Attribution: the RNAGym collection of RNA variant scans (doi:10.1073/pnas.2313332121)
